meta.source: patent US20190315806A1

System: Acinetobacter baumannii ATCC 19606
Type: cell-based
Conditions: ATCC 19606
Where a SMILES comes first, the peptide text is derived from it. Bridges are numbered along the chain shown (N, C = ends). [ ]: non-standard residue; d: D form. The star is where a group is joined. Benzoyl(4-OPh) = O=C(c1ccc(Oc2ccccc2)cc1)*; Heptanoyl(6-Me) = CC(C)CCCCC(=O)*; X2 = CC[C@H](C)CCCCC(=O)*; dDab = NCC[C@@H](N)C(=O)O; Heptanoyl = CCCCCCC(=O)*; Octanoyl = CCCCCCCC(=O)*; Dab = NCC[C@H](N)C(=O)O
Flag rule - MIC A. baumannii ATCC 19606 less than 1 µg/mL flags rule met; the remaining entries get rule not met.

Prompt: Does the reported MIC A. baumannii ATCC 19606 of the following compound sit strictly below 1 µg/mL? CCCCCCCC(=O)N[C@@H](CCN)C(=O)N[C@H](C(=O)N[C@H](CCN)C(=O)N[C@H]1CCNC(=O)[C@H]([C@@H](C)O)NC(=O)[C@H](CCN)NC(=O)[C@H](CCN)NC(=O)[C@H]([C@@H](C)O)NC(=O)[C@@H](CC(C)C)NC(=O)[C@H](CCN)NC1=O)[C@@H](C)O [Compound 32] (Octanoyl-[Dab]T[dDab][Dab][Dab][dL]T[Dab][Dab]T; lactam 4-C)
Completion: rule met

Prompt: Field: below-cutoff. Rule: recorded MIC A. baumannii ATCC 19606 strictly less than 1 µg/mL. Subject: CC(C)C[C@@H]1NC(=O)[C@@H](Cc2ccccc2)NC(=O)[C@H](CCN)NC(=O)[C@@H](NC(=O)[C@H](CCN)NC(=O)[C@@H](NC(=O)[C@H](CCN)NC(=O)c2ccc(Oc3ccccc3)cc2)[C@@H](C)O)CCNC(=O)[C@H]([C@@H](C)O)NC(=O)[C@H](CCN)NC(=O)[C@H](CCN)NC1=O [Compound 8] ({Benzoyl(4-OPh)}-[Dab]T[Dab][Dab][Dab][dF]L[Dab][Dab]T; lactam 4-C)
Completion: rule not met

Prompt: Lab note: MIC A. baumannii ATCC 19606 threshold 1 µg/mL. Does this compound come in strictly under it? CCCCCCC(=O)N[C@@H](CCN)C(=O)N[C@H](C(=O)N[C@@H](CCN)C(=O)N[C@H]1CCNC(=O)[C@H]([C@@H](C)O)NC(=O)[C@H](CCN)NC(=O)[C@H](CCN)NC(=O)[C@H](CC(C)C)NC(=O)[C@@H](Cc2ccccc2)NC(=O)[C@H](CCN)NC1=O)[C@@H](C)O [Compound 45] (Heptanoyl-[Dab]T[Dab][Dab][Dab][dF]L[Dab][Dab]T; lactam 4-C)
Completion: rule met

Prompt: Here's an entry: CCCCCCCC(=O)N[C@@H](CCN)C(=O)N[C@H](C(=O)N[C@H](CO)C(=O)N[C@H]1CCNC(=O)[C@H]([C@@H](C)O)NC(=O)[C@H](CCN)NC(=O)[C@H](CCN)NC(=O)[C@H]([C@@H](C)O)NC(=O)[C@@H](CC(C)C)NC(=O)[C@H](CCN)NC1=O)[C@@H](C)O [Compound 60] (Octanoyl-[Dab]T[dS][Dab][Dab][dL]T[Dab][Dab]T; lactam 4-C) . Is its MIC A. baumannii ATCC 19606 below 1 µg/mL?
Completion: rule met

Prompt: Please indicate whether the reported MIC A. baumannii ATCC 19606 of CC(C)CCCCC(=O)N[C@@H](CCN)C(=O)N[C@H](C(=O)N[C@H](CO)C(=O)N[C@H]1CCNC(=O)[C@H]([C@@H](C)O)NC(=O)[C@H](CCN)NC(=O)[C@H](CCN)NC(=O)[C@H]([C@@H](C)O)NC(=O)[C@@H](Cc2ccccc2)NC(=O)[C@H](CCN)NC1=O)[C@@H](C)O [Compound 116] ({Heptanoyl(6-Me)}-[Dab]T[dS][Dab][Dab][dF]T[Dab][Dab]T; lactam 4-C) is strictly below 1 µg/mL.
Completion: rule met

Prompt: In plain terms, does CC[C@H](C)CCCCC(=O)N[C@@H](CCN)C(=O)N[C@H](C(=O)N[C@@H](CCN)C(=O)N[C@H]1CCNC(=O)[C@H]([C@@H](C)O)NC(=O)[C@H](CCN)NC(=O)[C@H](CCN)NC(=O)[C@H](C(C)C)NC(=O)[C@@H](CC(C)C)NC(=O)[C@H](CCN)NC1=O)[C@@H](C)O [Compound 72] (X2-[Dab]T[Dab][Dab][Dab][dL]V[Dab][Dab]T; lactam 4-C) come in under 1 µg/mL for MIC A. baumannii ATCC 19606?
Completion: rule met
